assay: Counterscreen qHTS for small molecule stabilizers of the endoplasmic reticulum resident proteome: GLuc-NoTag assay (AID 1508627); conditions: Gaussia luciferase NoTag secretion counterscreen, luminescence, thapsigargin 100 nM for final 4 h; series mostly up to 76.4 µM;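 also: SH-SY5Y cells given compound then 100 nM thapsigargin to empty ER calcium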
Inconclusive results are not listed. Activity calls are given as the source filed them. Calls follow the shape of the dose curve; as a rule, active = well fitted inhibition curve with a large enough effect; inconclusive = small, poorly fitted or top-dose-only effect; inactive = no such curve, though single readings can be large or run the other way.

Entry smiles: COc1cc(OC)cc(C(=O)N2CCN(Cc3ccccc3C(F)(F)F)CC2)c1
outcome: inactive
--
Entry smiles: COc1cccc(-c2nc(N3CCN(C)CC3)c3ccccc3n2)c1
outcome: inactive
--
Entry smiles: O=c1cnc2cnc(N3CCNCC3)nc2n1Cc1ccc(F)cc1
outcome: inactive

----------
test: qHTS for Hypoxia signaling pathway (HIF-1) antagonists against the NCATS CANVASS Library (AID 1347374); conditions: HRE-bla ME-180 cells, HIF-1 beta-lactamase reporter, CoCl2; series mostly up to 38.3 µM; also: nearly all actives have a fitted effect of over 60% in size
Records with an inconclusive call do not appear. Activity calls are given as the source filed them. Calls follow the shape of the dose curve; as a rule, active = well fitted inhibition curve with a large enough effect; inconclusive = small, poorly fitted or top-dose-only effect; inactive = no such curve, though single readings can be large or run the other way.
Outcome codes: active, inactive

Compound: [C-]#[N+][C@@]12C(=O)[C@@H]3[C@@H](O[C@@]4(C(=O)N(C)c5cccc1c54)C3(C)C)C(=O)[C@@]2(C)C=C
Label: active

Compound: O=c1cc(-c2ccc(O)c(O)c2)oc2cc(O[C@@H]3O[C@H](CO)[C@@H](O)[C@H](O)[C@H]3O)cc(O)c12
Label: inactive

Compound: CO[C@@H](C[C@@H](C)[C@@H](O)/C=C/C=C/CNC(=O)C(C)(C)[C@H](O)\C(C)=C/C=C\C=C\Cc1cnco1)[C@]1(O)[C@@H](C)C(=O)N(C)[C@@]12COC2=O
Label: inactive

Compound: O=c1cc(-c2ccc(O)cc2)oc2cc(O)c([C@@H]3OC(CO)[C@H](O)[C@@H](O)[C@H]3O)c(O)c12 (some centres undefined)
Label: inactive

Compound: CC(C)=CCCC(C)(O)[C@H]1CC=C(C)C(O)C1 (some centres undefined)
Label: inactive

Compound: COc1cc(/C=C/C(=O)OC[C@@H](Cc2ccc(O)c(OC)c2)[C@@H](COC(=O)/C=C/c2ccc(O)c(OC)c2)Cc2ccc(O)c(OC)c2)ccc1O
Label: active

Compound: C/C1=C/[C@@H](C)[C@H](O)[C@@H](O)/C=C/CC/C=C/C(=O)O[C@@H]1[C@H](C)C(=O)/C=C/CC1CC(=O)NC(=O)C1
Label: active

Compound: COc1ccc([C@@H]2c3cc4c(cc3C(=O)[C@H](C)C2C)OCO4)cc1OC (some centres undefined)
Label: inactive

Compound: COC(=O)[C@@]1(C)CCC[C@]2(C)c3cc(OC)ccc3CC[C@@H]12
Label: inactive

Compound: CO[C@H]1[C@@H](OC(=O)/C(C)=C\[C@@H]2O[C@@H]2[C@H]2O[C@H]2C)[C@H](O)[C@H](OCC23C[C@@H]4[C@H](C)CC[C@H]4C4(C=O)CC2C=C(C(C)C)C34C(=O)O)O[C@@H]1C (some centres undefined)
Label: inactive

Compound: C[C@H]1C=C[C@H]2CCCC[C@@H]2[C@H]1C(=O)[C@H]1CC2=C(C(=O)O)CCN2C1=O
Label: inactive

Compound: O[C@H]1C=C2[C@H]3CN(Cc4cc5c(cc43)OCO5)[C@H]2C[C@@H]1O
Label: active

Compound: O=C1CCC(=O)N(O)CCCCCNC(=O)CCC(=O)N(O)CCCCCNC(=O)CCC(=O)N(O)CCCCCN1
Label: inactive

Compound: C=C[C@]1(C)CC[C@@H]([C@H](C)C(=O)/C=C/C(C)(C)O)O1
Label: inactive

Compound: CC[C@@H]1C[C@@]2(CC)OC(=O)[C@@]3(CC)[C@H](CC)[C@@H]1[C@@H]23
Label: inactive

Compound: C/C(=C\[C@H](C)C(=O)C[C@H](O)CC1CC(=O)NC(=O)C1)[C@@H]1OC(=O)CCCC/C=C/[C@@H](O)C[C@@H]1C
Label: active

Compound: C=C(C)C(=O)O[C@H]1C[C@@]2(C)OC(=CC2=O)/C(C)=C\[C@H]2OC(=O)C(=C)[C@H]12
Label: active

Compound: C/C(=C\[C@H](C)C(=O)/C=C/CC1CC(=O)NC(=O)C1)[C@@H]1OC(=O)CCCC/C=C/[C@H](O)[C@@H](O)[C@@H]1C
Label: active

Compound: CCC(=O)N[C@@H](C[C@H](C)C(Cl)(Cl)Cl)C(=O)N1C(=O)C=C(OC)[C@@H]1CC(C)C
Label: inactive
